Target: T1, rat NPR-A (rat, UniProt P18910 29-1057)
T1 sequence (looked up): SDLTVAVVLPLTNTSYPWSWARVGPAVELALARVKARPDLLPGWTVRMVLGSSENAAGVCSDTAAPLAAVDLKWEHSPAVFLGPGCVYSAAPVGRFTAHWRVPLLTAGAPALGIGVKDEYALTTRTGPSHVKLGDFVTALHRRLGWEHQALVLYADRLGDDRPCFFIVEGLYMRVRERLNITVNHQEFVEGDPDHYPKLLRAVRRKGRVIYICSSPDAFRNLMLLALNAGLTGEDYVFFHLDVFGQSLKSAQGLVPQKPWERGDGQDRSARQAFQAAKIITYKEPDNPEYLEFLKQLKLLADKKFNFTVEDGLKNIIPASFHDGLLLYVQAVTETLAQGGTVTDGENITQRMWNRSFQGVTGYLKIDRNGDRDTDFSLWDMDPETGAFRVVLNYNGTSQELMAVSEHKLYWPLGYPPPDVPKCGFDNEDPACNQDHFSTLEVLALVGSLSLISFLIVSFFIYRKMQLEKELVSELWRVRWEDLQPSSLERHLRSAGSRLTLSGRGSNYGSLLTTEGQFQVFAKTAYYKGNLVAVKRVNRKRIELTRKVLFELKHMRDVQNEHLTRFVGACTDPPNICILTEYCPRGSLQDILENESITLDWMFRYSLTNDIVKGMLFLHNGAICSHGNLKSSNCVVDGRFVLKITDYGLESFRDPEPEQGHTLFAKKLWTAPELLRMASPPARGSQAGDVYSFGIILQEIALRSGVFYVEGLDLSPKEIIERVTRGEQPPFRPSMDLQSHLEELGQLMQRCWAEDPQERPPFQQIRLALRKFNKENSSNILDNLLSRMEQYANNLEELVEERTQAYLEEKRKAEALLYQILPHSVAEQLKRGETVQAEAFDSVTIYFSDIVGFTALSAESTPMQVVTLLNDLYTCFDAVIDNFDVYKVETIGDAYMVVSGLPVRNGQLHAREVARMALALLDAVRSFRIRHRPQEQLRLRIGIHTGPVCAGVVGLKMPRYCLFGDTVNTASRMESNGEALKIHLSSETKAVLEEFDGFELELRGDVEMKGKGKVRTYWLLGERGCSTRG
Experiment: cell-based or functional assay
Positions of bridges follow the written chain, without caps; N, C: chain ends. No end group written: not given here.
Classification field: enter MET for NPR-A activation potency: Ratio compared ANP values not below 10 ratio, NOT MET for values below it.

- Binder: "GLLISCFGRRIDRISHTSDIGCRH (disulfide 6-22) [^GRDK-Ring]"
  Group label: "NOT MET"
- Binder: "SLRRSSCFDGRMDRIGAQSDLGCNSFRY (disulfide 7-23 (inferred)) [^DGDANP]"
  Group label: "NOT MET"
- Binder: "SLRRSSCFDRRMDRIGAQSDLGCNSFRY (disulfide 7-23 (inferred)) [^DRDANP]"
  Group label: "NOT MET"
- Binder: "GLLISCFDRRIDRISHTSGIGCRH (disulfide 6-22) [^DRGK-Ring]"
  Group label: "MET"
- Binder: "GLLISCFGRRIDRISHTSGIGCRH (disulfide 6-22) [^GRGK-Ring]"
  Group label: "NOT MET"
- Binder: "GLLISCFDGRIDRISHTSDIGCRH (disulfide 6-22) [^DGDK-Ring]"
  Group label: "MET"
- Binder: "GLLISCFDRRIDRISHTSDIGCRH (disulfide 6-22) [K-Ring]"
  Group label: "MET"
- Binder: "GLLISCFDRRIDRISHTSDIGCNSFRY (disulfide 6-22) [K-Ring^NSFRY]"
  Group label: "NOT MET"
